- Target Desc: Glucocorticoid Receptor (Homo sapiens)
- Construct: These cells express large amount of the GR and are very responsive to GC treatment; endogenous in cells; host or cells: A549 cells transiently transfected with the MMTV-LUC reporter
- Sequence (P04150 1-777): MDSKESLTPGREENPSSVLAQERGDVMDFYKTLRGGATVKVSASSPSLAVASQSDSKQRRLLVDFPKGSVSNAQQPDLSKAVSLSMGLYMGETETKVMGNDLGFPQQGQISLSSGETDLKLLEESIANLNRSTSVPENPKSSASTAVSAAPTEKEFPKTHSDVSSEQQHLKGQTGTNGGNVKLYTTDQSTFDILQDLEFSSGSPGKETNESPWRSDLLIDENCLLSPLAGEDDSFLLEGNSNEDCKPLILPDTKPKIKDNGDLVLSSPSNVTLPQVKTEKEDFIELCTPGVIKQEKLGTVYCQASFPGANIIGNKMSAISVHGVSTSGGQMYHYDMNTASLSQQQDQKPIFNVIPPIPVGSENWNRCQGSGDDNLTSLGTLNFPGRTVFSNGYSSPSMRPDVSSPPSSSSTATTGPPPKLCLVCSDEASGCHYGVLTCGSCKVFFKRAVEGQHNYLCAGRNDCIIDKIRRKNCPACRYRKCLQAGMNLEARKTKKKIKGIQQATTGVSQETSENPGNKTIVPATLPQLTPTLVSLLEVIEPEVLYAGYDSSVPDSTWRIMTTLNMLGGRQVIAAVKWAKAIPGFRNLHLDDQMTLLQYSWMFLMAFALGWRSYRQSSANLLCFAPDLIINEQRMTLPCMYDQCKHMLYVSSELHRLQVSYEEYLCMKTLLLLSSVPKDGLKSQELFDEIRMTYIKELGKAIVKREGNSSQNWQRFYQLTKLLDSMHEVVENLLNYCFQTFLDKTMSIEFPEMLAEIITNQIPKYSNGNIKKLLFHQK
- Protocol Summary: Trans-Activation Modulation of Glucocorticoid Receptor (GRAMMER), MMTV-LUC reporter gene in A549 cells
- Type: cell-based
- Cond: inflection point; A549 cells; Table 1; read-out: Transactivation A549 Cells GRAMMER IP

[
  {
    "Compound": "CC(O)CN(CC(C)O)C(=O)[C@H]1CCC2=Cc3c(cnn3-c3ccc(F)cc3)C[C@@]21C (stereo partly drawn)",
    "EC50 (nM)": 326
  },
  {
    "Compound": "CCCN(CC1CC1)C(=O)[C@H]1CCC2=Cc3c(cnn3-c3ccc(F)cc3)C[C@@]21C",
    "EC50 (nM)": 358
  },
  {
    "Compound": "CN(CCOc1ccccc1)C(=O)[C@H]1CCC2=Cc3c(cnn3-c3ccc(F)cc3)C[C@@]21C",
    "EC50 (nM)": 1390
  },
  {
    "Compound": "C[C@]12Cc3cnn(-c4ccc(F)cc4)c3C=C1CC[C@@H]2C(=O)N(CCc1ccccc1F)CC(O)C(F)(F)F (stereo partly drawn) [Compound 84]",
    "EC50 (nM)": 188
  },
  {
    "Compound": "CCN(CC(O)C(F)(F)F)C(=O)[C@H]1CCC2=Cc3c(cnn3-c3ccc(F)cc3)C[C@@]21C (stereo partly drawn) [Compound 71]",
    "EC50 (nM)": 151
  },
  {
    "Compound": "CN(Cc1cccc(C(F)(F)F)c1)C(=O)[C@H]1CCC2=Cc3c(cnn3-c3ccc(F)cc3)C[C@@]21C",
    "EC50 (nM)": 2410
  },
  {
    "Compound": "COC[C@H]1CCCN1C(=O)[C@H]1CCC2=Cc3c(cnn3-c3ccc(F)cc3)C[C@@]21C",
    "EC50 (nM)": 5000
  },
  {
    "Compound": "C[C@H](O)CN(CCc1ccccc1F)C(=O)[C@H]1CCC2=Cc3c(cnn3-c3ccc(F)cc3)C[C@@]21C",
    "EC50 (nM)": 680
  },
  {
    "Compound": "C[C@]12Cc3cnn(-c4ccc(F)cc4)c3C=C1CC[C@@H]2C(=O)N(CCc1ccccc1F)CC(O)C(F)(F)F (stereo partly drawn) [Compound 93]",
    "EC50 (nM)": 277
  },
  {
    "Compound": "CCCN(C[C@H](C)O)C(=O)[C@H]1CCC2=Cc3c(cnn3-c3ccc(F)cc3)C[C@@]21C",
    "EC50 (nM)": 431
  },
  {
    "Compound": "C[C@]12Cc3cnn(-c4ccc(F)cc4)c3C=C1CC[C@@H]2C(=O)N(CCO)Cc1ccccc1",
    "EC50 (nM)": 872
  },
  {
    "Compound": "CC(C)CN(CC(C)C)C(=O)[C@H]1CCC2=Cc3c(cnn3-c3ccc(F)cc3)C[C@@]21C",
    "EC50 (nM)": 177
  },
  {
    "Compound": "C[C@]12Cc3cnn(-c4ccc(F)cc4)c3C=C1CC[C@@H]2C(=O)N(CCc1ccccc1F)CC(O)CC(F)(F)F (stereo partly drawn) [Compound 94]",
    "EC50 (nM)": 363
  },
  {
    "Compound": "C[C@]12Cc3cnn(-c4ccc(F)cc4)c3C=C1CC[C@@H]2C(=O)N(CCO)Cc1cc(F)c(F)c(F)c1",
    "EC50 (nM)": 1220
  },
  {
    "Compound": "CC(C)CCN(CCC(C)C)C(=O)[C@H]1CCC2=Cc3c(cnn3-c3ccc(F)cc3)C[C@@]21C",
    "EC50 (nM)": 728
  }
]

* * *

The entries below come with measured pKi values attached.
- Target Desc: glucocorticoid receptor (GR) (Homo sapiens, UniProt P04150)
- Sequence (P04150 1-777): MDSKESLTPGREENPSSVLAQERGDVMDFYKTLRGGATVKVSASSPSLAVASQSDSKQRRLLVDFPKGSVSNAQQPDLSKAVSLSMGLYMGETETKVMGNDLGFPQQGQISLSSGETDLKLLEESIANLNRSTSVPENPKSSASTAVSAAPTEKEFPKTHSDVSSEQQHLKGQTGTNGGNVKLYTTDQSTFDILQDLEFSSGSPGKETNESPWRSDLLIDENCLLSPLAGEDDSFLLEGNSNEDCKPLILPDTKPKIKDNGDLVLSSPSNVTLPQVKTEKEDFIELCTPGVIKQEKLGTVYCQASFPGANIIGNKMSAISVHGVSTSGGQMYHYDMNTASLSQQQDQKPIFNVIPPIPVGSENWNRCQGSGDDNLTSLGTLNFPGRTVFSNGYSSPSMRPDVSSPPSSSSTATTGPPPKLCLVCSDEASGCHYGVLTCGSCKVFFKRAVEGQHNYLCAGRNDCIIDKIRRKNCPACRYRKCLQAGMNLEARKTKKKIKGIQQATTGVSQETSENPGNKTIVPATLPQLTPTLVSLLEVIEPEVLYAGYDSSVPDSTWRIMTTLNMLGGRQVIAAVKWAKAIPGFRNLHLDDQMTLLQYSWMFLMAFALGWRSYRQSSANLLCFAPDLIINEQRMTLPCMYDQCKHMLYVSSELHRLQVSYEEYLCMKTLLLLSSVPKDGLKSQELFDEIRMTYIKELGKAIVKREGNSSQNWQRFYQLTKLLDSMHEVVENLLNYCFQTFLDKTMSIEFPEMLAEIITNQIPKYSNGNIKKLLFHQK
- Protocol Summary: Ligand binding assay (GR BIND), 3H-dexamethasone displacement in MDA-MB-453 cell lysate
- Cond: GR BIND Ki, Table 1
pKi: −log10 of the molar value.

[
  {
    "Compound": "C[C@]12Cc3cnn(-c4ccc(F)cc4)c3C=C1CC[C@@H]2C(=O)NCc1ccc(Cl)cc1Cl",
    "pKi": 7.79
  },
  {
    "Compound": "CN(CCOc1ccccc1)C(=O)[C@H]1CCC2=Cc3c(cnn3-c3ccc(F)cc3)C[C@@]21C",
    "pKi": 8.15
  },
  {
    "Compound": "CCN(Cc1ccccc1)C(=O)[C@H]1CCC2=Cc3c(cnn3-c3ccc(F)cc3)C[C@@]21C",
    "pKi": 8.59
  },
  {
    "Compound": "CN(CC(O)C(F)(F)F)C(=O)[C@H]1CCC2=Cc3c(cnn3-c3ccc(F)cc3)C[C@@]21C (stereo partly shown)",
    "pKi": 7.97
  }
]
